- measured_target: human ALK2 R206H (Homo sapiens, UniProt Q04771, R206H)
- Construct: expressed in transfected cells; host or cells: HEK293 (ATCC CRL1573), lentivirus transduction, blasticidin selection
- assay: Cell-based ALK2-R206H cell activity assay (Smad1-Ser463/Ser465 phosphorylation by AlphaLISA in HEK293-ALK2-R206H cells)
- condition_notes: read-out: Cell Line (Cell Assay IC50)
- Experimental: A HEK293 (ATCC, Cat^# CRL1573) based stable cell line expressing human ALK2 R206H cDNA (synthesized by GeneScript, Piscataway, N.J.) and a FLAG tag at the C-terminus was generated by lentivirus transduction and subsequent blasticidin (Life Technologies, Cat^#-A1113902) selection at 10 μg/ml for >2 wks. This cell line was named HEK293-ALK2-R206H. Test compounds were first diluted to 4 mM or 0.4 mM and then serially diluted 3-fold into 10 different concentrations using DMSO. […]
pIC50: −log10 of the molar value.
quantity_kind: pIC50

Example cases with answers are listed next.
According to the records, this compound CC(C)N1CCC[C@@](F)(c2ccc(-c3cc4c(N5CCN(C(=O)OC6COC6)CC5)ccnn4c3)nc2)C1 [Compound 695] displays pIC50 of > 7.00

According to the records, this compound COC1(c2ccc(-c3cc4c(N5CCN(C(=O)C6CC6)[C@H](C)C5)ccnn4c3)cc2)CCN(C(C)C)CC1 [Compound 659] displays pIC50 of > 7.00

According to the records, this compound CC(C)N1CCC(C)(c2ccc(-c3cc4c(N5CCN(C(=O)OC6COC6)CC5)ccnn4c3)cc2)CC1 [Compound 668] displays pIC50 of 6.30 to 7.00

According to the records, this compound COC(=O)NC1(c2ccc(-c3cc4c(N5CCN(C(=O)C6CC6)CC5)ccnn4c3)cc2)CCNCC1 [Compound 622] displays pIC50 of < 6.30

According to the records, this compound CC(C)N1CCC(c2ccc(-c3cc4c(N5CCN(C(=O)OCC6CC6)CC5)ccnn4c3)cc2)CC1 [Compound 386] displays pIC50 of 6.30 to 7.00

List pIC50 for every entry below, keeping the order given.
1. CC(C)N1CCC[C@@H](c2ccc(-c3cc4c(N5CCN(C(=O)OC6(C)COC6)CC5)ccnn4c3)cc2)C1 [Compound 827]
2. N[C@@H](CO)c1ccc(-c2cc3c(N4CCN(C(=O)OC5COC5)CC4)ccnn3c2)cc1 [Compound 763]

Ans.
1. 6.30 to 7.00
2. > 7.00

List pIC50 for every entry below, keeping the order given.
1. CC(C)N1CC[C@@H](c2ccc(-c3cc4c(N5CCN(C(=O)[C@H]6C[C@@H]6C#N)CC5)ccnn4c3)cc2)C1 [Compound 298]
2. CCN1C[C@@H]2CN(c3ccnn4cc(-c5ccc(N6CCN(C(C)C)CC6)cc5)cc34)CCN2C1=O [Compound 330]
3. O=C(C1CC1)N1CCN(c2ccnn3cc(-c4ccc([C@@H]5CNCCO5)cc4)cc23)CC1 [Compound 131]
4. CC(C)N1CC[C@H](c2ccc(-c3cc4c(N5CCN(C(=O)C6CC6)CC5)ccnn4c3)cc2)C1 [Compound 204]
5. CC(C)N1CCC[C@H]1c1ccc(-c2cc3c(N4CCN(C(=O)C5CC5)CC4)ccnn3c2)cc1 [Compound 210]
6. CCN1CC2(C1)CN(c1ccc(-c3cc4c(N5CCN(C(=O)C6CC6)CC5)ccnn4c3)cc1)C2 [Compound 241]
7. CC(C)N1CCC[C@@H](c2ccc(-c3cc4c(N5CCN(C(=O)O[C@@H]6CCOC6)CC5)ccnn4c3)cc2)C1 [Compound 825]

Ans.
1. > 7.00
2. 6.30 to 7.00
3. 6.30 to 7.00
4. > 7.00
5. > 7.00
6. > 7.00
7. 6.30 to 7.00

List pIC50 for every entry below, keeping the order given.
1. O=C(C1CC1)N1CCN(c2ccnn3cc(-c4ccc(OC5CCCNC5)cc4)cc23)CC1 (centres unmarked) [Compound 159]
2. CCN1CCN(c2ccc(-c3cc4c(N5CCN(C(=O)C6CC6)CC5)ccnn4c3)cc2)C(=O)C1 [Compound 259]
3. CCNC(=O)N1CCN(c2ccnn3cc(-c4ccc([C@@H]5CCCN(C(C)C)C5)cn4)cc23)CC1 [Compound 538]
4. CCN1CCOC(c2ccc(-c3cc4c(N5CCN(C(=O)C6CC6)CC5)ccnn4c3)cc2)C1 (centres unmarked) [Compound 214]
5. CCOC1(c2ccc(-c3cc4c(N5CCN(C(=O)OCC(F)F)CC5)ccnn4c3)nc2)CCN(C(C)C)CC1 [Compound 872]
6. COC1(c2ccc(-c3cc4c(N5CCN(C(=O)C6CC6)CC5)ccnn4c3)cc2)CCCN(C(C)C)C1 (centres unmarked) [Compound 388]
7. CC(C)N1CCC(c2ccc(-c3cc4c(N5CCN(C(=O)OC6CCOCC6)CC5)ccnn4c3)cc2)CC1 [Compound 709]
8. CC(C)NC(=O)N1CCN(c2ccnn3cc(-c4ccc([C@@H]5CCN(C(C)C)C5)cc4)cc23)CC1 [Compound 531]

Ans.
["> 7.00", "< 6.30", "> 7.00", "6.30 to 7.00", "> 7.00", "> 7.00", "6.30 to 7.00", "> 7.00"]

List pIC50 for every entry below, keeping the order given.
1. CO[C@@]1(c2ccc(-c3cc4c(N5CCN(C(=O)OC6COC6)CC5)ccnn4c3)nc2)CCCN(C(C)C)C1 [Compound 718]
2. CCN[C@@H](CO)c1ccc(-c2cc3c(N4CCN(C(=O)OC5COC5)CC4)ccnn3c2)cc1 [Compound 780]
3. CCOC(=O)N1CCN(c2ccnn3cc(-c4ccc([C@@H](N)CO)cc4)cc23)CC1 [Compound 754]
4. O=C(C1CC1)N1CCN(c2ccnn3cc(-c4ccc(N5CCNC6(COC6)C5)cc4)cc23)CC1 [Compound 260]

Ans.
1. > 7.00
2. > 7.00
3. > 7.00
4. 6.30 to 7.00

* * *

Can you tell me pIC50 for the items I'm about to list?
- measured_target: ALK2 R206H (GST-tagged mutant ALK2) (Homo sapiens, UniProt Q04771, R206H)
- Construct: purchased Carna Bioscience or ThermoFisher 09-148 or PV6232
- Sequence (Q04771 21-509 R206H): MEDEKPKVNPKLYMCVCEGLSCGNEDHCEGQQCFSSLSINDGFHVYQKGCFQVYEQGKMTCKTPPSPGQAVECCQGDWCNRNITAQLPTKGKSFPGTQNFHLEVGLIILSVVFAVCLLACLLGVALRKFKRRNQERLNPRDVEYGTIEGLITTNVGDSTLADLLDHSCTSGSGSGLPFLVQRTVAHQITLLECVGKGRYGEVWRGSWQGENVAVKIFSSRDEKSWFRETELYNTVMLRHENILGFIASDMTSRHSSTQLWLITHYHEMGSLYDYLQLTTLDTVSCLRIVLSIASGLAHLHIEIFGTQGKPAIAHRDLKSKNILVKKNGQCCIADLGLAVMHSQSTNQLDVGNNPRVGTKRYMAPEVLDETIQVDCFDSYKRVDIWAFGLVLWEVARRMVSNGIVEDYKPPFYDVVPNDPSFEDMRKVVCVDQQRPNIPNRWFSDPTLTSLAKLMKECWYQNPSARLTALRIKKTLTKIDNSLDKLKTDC
- assay: ALK binding assay (LANTHASCREEN TR-FRET competitive binding, displacement of Kinase Tracer 178)
- condition_notes: ALK2 R206H, LANTHASCREEN TR-FRET competitive binding; read-out: Binding Assay (IC50)
pIC50: −log10 of the molar value.

Example cases with answers are listed next.
According to the records, this molecule `CCN1CCN(c2ccc(-c3cc4c(N5CCN(C(=O)C6(c7cccs7)CC6)CC5)ccnn4c3)cc2)CC1` displays pIC50 of 7.30 to 8.00

According to the records, this molecule `O=C(OC1COC1)N1CCN(c2ccnn3cc(-c4ccc(N5CCNCC5)cc4)cc23)CC1` displays pIC50 of > 8.00

According to the records, this molecule `CC[C@H](C)N1CCC[C@@H](c2ccc(-c3cc4c(N5CCN(C(=O)C6CC6)CC5)ccnn4c3)cc2)C1` displays pIC50 of > 8.00

Lab note: next molecule to report on.
According to the records, this molecule CCN1CC(F)C(c2ccc(-c3cc4c(N5CCN(C(=O)C6CC6)CC5)ccnn4c3)cc2)C1 (stereo not shown) displays pIC50 of > 8.00

* * *

- measured_target: human ALK2 R206H (Homo sapiens, UniProt Q04771, R206H)
- Construct: expressed in transfected cells; host or cells: HEK293 (ATCC CRL1573), lentivirus transduction, blasticidin selection
- assay: Cell-based ALK2-R206H cell activity assay (Smad1-Ser463/Ser465 phosphorylation by AlphaLISA in HEK293-ALK2-R206H cells)
- condition_notes: read-out: Cell Line (Cell Assay IC50)
- Procedure: A HEK293 (ATCC, Cat^# CRL1573) based stable cell line expressing human ALK2 R206H cDNA (synthesized by GeneScript, Piscataway, N.J.) and a FLAG tag at the C-terminus was generated by lentivirus transduction and subsequent blasticidin (Life Technologies, Cat^#-A1113902) selection at 10 μg/ml for >2 wks. This cell line was named HEK293-ALK2-R206H. Test compounds were first diluted to 4 mM or 0.4 mM and then serially diluted 3-fold into 10 different concentrations using DMSO. […]
quantity_kind: IC50

Example cases with answers are listed next.
The molecule `CC(C)NC(=O)N1CCN(c2ccnn3cc(-c4ccc([C@H]5CN(C(C)C)CC[C@@H]5OC(F)F)cc4)cc23)CC1` , when measured on human ALK2 R206H (Homo sapiens, UniProt Q04771, R206H), yielded IC50 of < 100 nM

The molecule `CC(C)N1CCC[C@](F)(c2ccc(-c3cc4c(N5CCN(C(=O)OC6COC6)CC5)ccnn4c3)cc2)C1` , when measured on human ALK2 R206H (Homo sapiens, UniProt Q04771, R206H), yielded IC50 of < 100 nM

The molecule CCN1CCN(c2ccc(-c3cc4c(N5CCN(C(=O)C6CC(C#N)C6)CC5)ccnn4c3)cc2)CC1 (stereo not shown) , when measured on human ALK2 R206H (Homo sapiens, UniProt Q04771, R206H), yielded IC50 of < 100 nM

Lab note: next molecule to report on.
The molecule `CC(C)N1CC[C@@H](c2ccc(-c3cc4c(N5CCN(C(=O)C6CC6)CC5)ccnn4c3)cc2F)C1` , when measured on human ALK2 R206H (Homo sapiens, UniProt Q04771, R206H), yielded IC50 of 100 to 500 nM
